These data points were gathered from patent US20230054956A1.

Target: GII.4 Sydney 2012 virus-like particles (VLPs), based on strain AFV08795.1 (human norovirus GII.4 Sydney 2012, UniProt P54635 1-538, The particle is a multimeric assembly of VP1 with a little VP2 inside; one VP1 chain is given.)
Test: indirect ELISA, VLP coated
measured.quantity: EC50 (µg/mL)

[
  {
    "binder": "NORO-263 (antibody, V domains shown) VH: QVQLVESGGGLVKPGGSLRLSCAASGFTLSDYYMSWIRQAPGKGLEWVAYISSSHTSTYYRDSVKGRFTISRDSAKKSLYLQMNSLRVEDTAIYYCARDWVGGRSAYSDHWGQGTLVTVSS VL: SYELTQPPSVSVSPGQTARITCSGDALPRRPAFWYQQKSGQAPVLVMYDDSKRPSGIPERFSGSSSGTVATLTISGAQVEDEADYHCYSTDSSGKERVFGGGTKLTVL",
    "readout.number": 0.6
  },
  {
    "binder": "NORO-296A (antibody, V domains shown) VH: QVQLVESGGGLVKPGGSLRLSCAASGFTFSEYYMSWVRQAPGKALEWVSYITSSFSSTSYADSVKGRFVISRDNAKNSLYLQMNSLRVEDTAVYYCARYGAEYGSRSFYFLDWGQGTLVTVSS VL: QSVLTQPPSVSGAPEQRVTISCTGSSSNIGAGYDVHWYQVLPGIAPKLLIYDNNKRPSGVPDRFSGSKSGTSASLAITGLQAEDEADYYCQSYDSRLSSNVVFGGGTKLTVL",
    "readout.number": 0.6
  },
  {
    "binder": "NORO-251A (antibody, V domains shown) VH: QVQLVESGGGVVQPGRSLRLSCAASGFTFRSYGIHWVRQAPGKGLEWVALISYDGSSKYYADSVKGRFTISRDNSKNTLYLQMNSLRSEDTAVYYCAKVRLTSYSIGWFSFDYWGQGTLVTVSS VL: QSVLTQPPSVSAAPGQKVTISCSGSSSNIANYYVSWYQQLPGRAPKLLIYDNNKRPSGIPDRISGSKSGTSATLGITGLQTGDEADYYCGTWDTSLSAWVFGGGTKLTVL",
    "readout.number": 0.9
  },
  {
    "binder": "NORO-312A (antibody, V domains shown) VH: QVQLVESGGALVKPGESLRLSCAASGFTFSDSYMSWIRQAPGKGLEWVAYISGIMSSTNYADSVKGRFTISRDNGKNSVYLQMNNLRAEDTAVYYCARDAQYCSGGRCYLVFDYWGQGTLVTVSS VL: QSVLTQPPSVSGAPGQRVTISCTGSSSNIGAGYEVHWYQQLPGAAPKLIIYGNNNRPSGVPDRFSGSKSGTSASLAITGLQADDEADYYCQSYDNRLRVFGGGTKLTVL",
    "readout.number": 0.4
  },
  {
    "binder": "NORO-202A.1 (antibody, V domains shown) VH: QVQLVQSGAEVKKPGASVKVSCKASEYTFTGYYLQWVRQAPGHGLEWMGWINPSGGTKYSQKFQGRVTMTRDTSITTVYMELSRLRSDDTAVYYCARDLLRNWGDHDAFDVWGQGTMVTVSS VL: QSVLTQPPSASETPGQGVTISCSGSSSNIGSNFVCWYQQVPGTAPKLLIYKNNQRPSGVPDRFSGSKSGTSASLAISGLRSEDEADYYCSAWDDSLSGPVFGGGTKLTVL",
    "readout.number": 0.4
  },
  {
    "binder": "NORO-303 (antibody, V domains shown) VH: QVQLVESGGGVVQPGRSLRLSCAASGFIFSSYAMHWVRQAPGKGLEWVAVMSYDGNNKYYADSVKGRFTISRDNSKNTLFLQMNSLRPEDTAVYYCARDCRVGWVFTYGMDVWGQGTLVTVSS VL: QSALTQPPSASGSPGQSVTISCTGTSSDVGGYNYVSWYQQHPGKAPKLMMYEISKRPSGVPIRFSGSKSGNTASLTVSGLQAEDEADYYCSSYAGTYNCVVFGGGTKLTVL",
    "readout.number": 0.5
  },
  {
    "binder": "NORO-279A (antibody, V domains shown) VH: QVQLVESGGGVVQPGRSLRLSCAASGFTFTKYGMHWVRQAPGKGLEWVAFIAYDGSVKYYGDSAKGRFAISRDNPKNTVYLQMNSLRAEDTAVYYCAKVEIHYYSNSLLGMDVWGQGTLVTVSS VL: QSVLTQPPSASGTPGQRVTISCSGGNSNIGISYVYWYQHLPGTAPKLLISKNNLRPSGVPDRFSASKSGTSASLAISGLRSEDEAEYYCATLDINMTWVFGGGTKLTVL",
    "readout.number": 0.2
  },
  {
    "binder": "NORO-317 (antibody, V domains shown) VH: QVQLVESGGGLVKPGGSLRLSCVASGFTFSDYYISWVRQAPGKGLEWVSYISAINSYTNYADSVRGRFTVSRDNAKKSVFLQMNSLRVDDTAVYYCARDVGGSVRYSSNSNKKSYNYFDPWGQGTLVTVSS VL: SYELTQPPSVSVSPGQTATITCSGDVLSKEFAYWYQQKPGQAPVLVIYKDNERPSGIPERFSGSTSGTTVTLTISGVLAEDEAHYYCQSVDTRGTYKVFGGGTKLTVL",
    "readout.number": 0.4
  },
  {
    "binder": "NORO-256A (antibody, V domains shown) VH: QVQLVESGGGVVQAGRSLRLSCAASGFTFRSYGMHWVRQAPGKGLEWVAIISYDGGSKYYADSVKGRFTISRDNSKNTLYLQMNSLRVEDTALYYCAKDFLRVYSYGWHSFDIWGLGTLVTVSS VL: QSVLTQPPSVSAAPGQRVTISCSGSSSNIGTYYVSWYQHLPGTAPKLLIYDNDKRPSGIPDRFSASKSGTSATLDIAGLQTGDEADYYCGTWDLSLTAGWVFGGGTKLTVL",
    "readout.number": 0.9
  },
  {
    "binder": "NORO-315B (antibody, V domains shown) VH: QVQLVESGGGLVKPGGSLRLSCVASGFTFSDYYMTWFRQTPGRGLEWLSYISAIGGYTEYADSVKSRFIISRDNGKKSLYLQMNSLRAEDSGVYYCAREDCHGTSCYSGDWGQGTLVTVSS VL: QSVLTQPPSVSGAPGQRVTISCTGSSSNIGAGYDVHWYQQLPGTAPKLLIYHNTNRPSGVPDRFSGSKSGTSAYLTITGLQAEDEADYYCQSYDRSLSKSRVFSGGTKLTVL",
    "readout.number": 0.7
  }
]
